- assay protocol: Apparent permeability in Caco-2 monolayers
- Assay type: in vitro ADME
- condition summary: human; Caco‐2, 10 μM; read-out: Efflux ratio P app,BL→AP/AP→BL, without inhibitor
reported metric: efflux ratio at 2 h, 10 μM

CC(C)NCC(O)COc1cccc2ccccc12 (stereo not drawn) : 0.785

P: CC(C)(C)NCC(O)COc1cccc2c1CC(O)C(O)C2 (stereo not drawn)
Q: CC(=O)O[C@H]1C(=O)[C@@]2(C)[C@H]([C@H](OC(=O)c3ccccc3)[C@]3(O)C[C@H](OC(=O)[C@H](O)[C@@H](NC(=O)c4ccccc4)c4ccccc4)C(C)=C1C3(C)C)[C@]1(OC(C)=O)CO[C@@H]1C[C@@H]2O
INPUT: Looking only at measured efflux ratio at 2 h, 10 μM, which entry is lower, P or Q ? Kindly give the label for the entry you pick.
OUTPUT: P
(P: 0.88, Q: 7.02)
